Kindly state hGIPR Potency, 1% HSA, EC50 [pM] for each of the entries shown.
Target: T1, human GIP receptor (human, UniProt P48546 22-466)
T1 sequence (looked up): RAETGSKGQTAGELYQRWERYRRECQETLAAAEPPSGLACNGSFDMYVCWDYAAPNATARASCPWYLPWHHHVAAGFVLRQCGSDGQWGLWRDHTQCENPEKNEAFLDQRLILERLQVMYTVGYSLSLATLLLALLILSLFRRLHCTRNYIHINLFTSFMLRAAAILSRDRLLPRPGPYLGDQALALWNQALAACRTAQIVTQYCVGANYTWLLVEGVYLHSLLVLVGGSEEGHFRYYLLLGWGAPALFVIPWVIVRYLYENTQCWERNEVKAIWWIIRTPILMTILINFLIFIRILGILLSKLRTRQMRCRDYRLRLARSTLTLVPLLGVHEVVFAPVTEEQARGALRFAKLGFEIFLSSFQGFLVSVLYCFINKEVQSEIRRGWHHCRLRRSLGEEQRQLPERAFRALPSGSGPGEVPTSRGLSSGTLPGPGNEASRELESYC
Assay: cell-based or functional assay
Numbered stars: 1 amine (or outer) side, 2 acyl side, 3 side chain; on linkers, the order of the positions; unused ones are H or OH. Square brackets hold non-standard residues; d marks the D form. Side chains are listed from the residue outwards. * marks the point of attachment. C20 diacid = O=C(O)CCCCCCCCCCCCCCCCCCC(=O)*; C18 diacid = O=C(O)CCCCCCCCCCCCCCCCC(=O)*; C16 diacid = O=C(O)CCCCCCCCCCCCCCC(=O)*; γGlu = O=C(O)[C@H](CCC(=O)[*:2])N[*:1]; Chem. 28 = not defined here; Chem. 29 = not defined here; AEEA = NCCOCCOCC(=O)O; Aib = CC(C)(N)C(=O)O
The answer is to be given in pM; state only the numeric part.

For Compound 113 (peptide) peptide: Y[Aib]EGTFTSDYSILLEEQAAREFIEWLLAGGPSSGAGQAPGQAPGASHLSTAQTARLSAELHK([AEEA-AEEA-γGlu-C18 diacid])LATLPRTETGSGSP-NH2 , what is its reported hGIPR Potency, 1% HSA, EC50 [pM]?
8.96

For Compound 39 (reading uncertain) peptide: Y[Aib]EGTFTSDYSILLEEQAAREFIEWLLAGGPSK(Chem. 28)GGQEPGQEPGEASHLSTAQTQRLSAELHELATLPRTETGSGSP-NH2 , what is its reported hGIPR Potency, 1% HSA, EC50 [pM]?
352

For Compound 80 (peptide) peptide: Y[Aib]EGTFTSDYSILLEEQAAREFIEWLLAGGPSSGEASHLSTAQTQRLSAELHRLK([AEEA-AEEA-γGlu-C18 diacid])TLPRTETGSGSP-NH2 , what is its reported hGIPR Potency, 1% HSA, EC50 [pM]?
20.2

For Compound 14 (peptide) peptide: H[Aib]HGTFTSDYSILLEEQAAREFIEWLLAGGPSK([AEEA-AEEA-γGlu-C18 diacid])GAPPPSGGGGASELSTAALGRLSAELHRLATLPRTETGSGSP-NH2 , what is its reported hGIPR Potency, 1% HSA, EC50 [pM]?
254

For Compound 58 (reading uncertain) peptide: Y[Aib]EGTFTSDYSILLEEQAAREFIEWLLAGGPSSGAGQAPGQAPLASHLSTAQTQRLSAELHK(Chem. 28)LATLPRTETGSGSP-NH2 , what is its reported hGIPR Potency, 1% HSA, EC50 [pM]?
7.58

For Compound 68 (peptide) peptide: Y[Aib]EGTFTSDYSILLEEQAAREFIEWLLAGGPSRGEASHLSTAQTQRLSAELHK([AEEA-AEEA-γGlu-C18 diacid])LATLPRTETGSGSP-NH2 , what is its reported hGIPR Potency, 1% HSA, EC50 [pM]?
11.9

For Compound 105 (reading uncertain) peptide: Y[Aib]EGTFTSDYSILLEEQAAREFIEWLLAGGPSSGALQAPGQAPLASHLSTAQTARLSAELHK(Chem. 28)LATLPRTETGSGSP-NH2 , what is its reported hGIPR Potency, 1% HSA, EC50 [pM]?
12.5

For Compound 106 (reading uncertain) peptide: H[Aib]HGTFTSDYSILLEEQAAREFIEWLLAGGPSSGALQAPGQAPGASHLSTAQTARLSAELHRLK(Chem. 28)TLPRTETGSGSP-NH2 , what is its reported hGIPR Potency, 1% HSA, EC50 [pM]?
10.3

For Compound 69 (peptide) peptide: H[Aib]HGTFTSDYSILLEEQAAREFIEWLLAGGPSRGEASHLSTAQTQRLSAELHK([AEEA-AEEA-γGlu-C18 diacid])LATLPRTETGSGSP-NH2 , what is its reported hGIPR Potency, 1% HSA, EC50 [pM]?
8.05

For Compound 73 (peptide) peptide: H[Aib]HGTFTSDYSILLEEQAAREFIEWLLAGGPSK([AEEA-AEEA-γGlu-C18 diacid])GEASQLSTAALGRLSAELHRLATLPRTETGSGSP-NH2 , what is its reported hGIPR Potency, 1% HSA, EC50 [pM]?
96.5

For Compound 17 (peptide) peptide: H[Aib]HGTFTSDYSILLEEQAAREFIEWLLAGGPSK([AEEA-AEEA-γGlu-C16 diacid])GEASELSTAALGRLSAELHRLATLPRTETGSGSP-NH2 , what is its reported hGIPR Potency, 1% HSA, EC50 [pM]?
36.9

For Compound 77 (peptide) peptide: Y[Aib]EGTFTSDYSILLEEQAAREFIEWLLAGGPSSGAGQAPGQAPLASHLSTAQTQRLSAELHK([AEEA-AEEA-γGlu-C20 diacid])LATLPRTETGSGSP-NH2 , what is its reported hGIPR Potency, 1% HSA, EC50 [pM]?
13.4

For Compound 63 (peptide) peptide: H[Aib]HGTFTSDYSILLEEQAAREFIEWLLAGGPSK([AEEA-AEEA-γGlu-C18 diacid])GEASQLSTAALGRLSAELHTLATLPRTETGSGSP-NH2 , what is its reported hGIPR Potency, 1% HSA, EC50 [pM]?
63.2

For Compound 10 (reading uncertain) peptide: Y[Aib]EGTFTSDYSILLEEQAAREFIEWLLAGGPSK(Chem. 29)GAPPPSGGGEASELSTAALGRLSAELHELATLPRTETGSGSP-NH2 , what is its reported hGIPR Potency, 1% HSA, EC50 [pM]?
42.4

For Compound 37 (reading uncertain) peptide: H[Aib]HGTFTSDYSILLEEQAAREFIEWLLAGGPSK(Chem. 28)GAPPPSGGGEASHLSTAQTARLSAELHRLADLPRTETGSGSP-NH2 , what is its reported hGIPR Potency, 1% HSA, EC50 [pM]?
133

For Compound 109 (not fully specified; reading uncertain) peptide: Y[Aib]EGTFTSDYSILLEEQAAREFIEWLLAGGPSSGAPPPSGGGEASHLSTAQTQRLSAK(Chem. 28)LHRLATLPRTETGSGSP-NH2 , what is its reported hGIPR Potency, 1% HSA, EC50 [pM]?
17.4
